I'd appreciate it if you could supply Kd values for the items below.
Target: T1, EsCas13d, nuclease-dead (Eubacterium siraeum, UniProt B0MS50, R295A;H300A;R849A;H854A)
T1 sequence: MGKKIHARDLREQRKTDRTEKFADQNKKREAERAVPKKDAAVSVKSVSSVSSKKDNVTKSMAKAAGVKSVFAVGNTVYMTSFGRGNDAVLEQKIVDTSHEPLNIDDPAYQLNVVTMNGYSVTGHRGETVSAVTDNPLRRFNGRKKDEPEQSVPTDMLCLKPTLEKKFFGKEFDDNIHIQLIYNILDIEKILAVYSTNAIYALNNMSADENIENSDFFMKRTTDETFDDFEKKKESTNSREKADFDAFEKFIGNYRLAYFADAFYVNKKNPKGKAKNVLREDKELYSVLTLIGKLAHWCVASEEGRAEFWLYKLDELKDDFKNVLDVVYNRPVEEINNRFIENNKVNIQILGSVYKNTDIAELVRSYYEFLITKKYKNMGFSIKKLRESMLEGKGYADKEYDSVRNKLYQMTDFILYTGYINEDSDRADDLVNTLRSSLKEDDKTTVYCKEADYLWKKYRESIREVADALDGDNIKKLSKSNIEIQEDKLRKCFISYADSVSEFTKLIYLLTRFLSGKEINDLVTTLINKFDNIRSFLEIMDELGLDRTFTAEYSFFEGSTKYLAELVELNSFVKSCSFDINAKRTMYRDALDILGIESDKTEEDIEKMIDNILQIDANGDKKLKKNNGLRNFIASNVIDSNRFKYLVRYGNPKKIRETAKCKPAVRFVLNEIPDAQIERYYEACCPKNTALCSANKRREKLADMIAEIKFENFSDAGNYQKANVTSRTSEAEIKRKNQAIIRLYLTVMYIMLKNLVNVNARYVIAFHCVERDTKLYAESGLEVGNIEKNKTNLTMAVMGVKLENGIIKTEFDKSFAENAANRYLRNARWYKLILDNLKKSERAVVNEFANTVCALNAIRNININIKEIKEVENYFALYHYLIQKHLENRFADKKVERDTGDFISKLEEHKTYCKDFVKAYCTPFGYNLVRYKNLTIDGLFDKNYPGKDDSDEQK
Test: crRNA (strand 1, pre-loaded); Mg2+; 40 mM Tris-HCl pH 7.5, 150 mM NaCl, 6 mM MgCl2, 1 mM DTT, 0.1% Tween-20, 0.2 mg/ml BSA; 25 C; 10 min per concentration, then washed
Settings: tags: His6-TwinStrep-SUMO cleaved; N-terminal SNAP kept (SNAP-Surface 488); label: 3' end held by stalled T7 RNA polymerase
Note: unit nM is implicit; provide only the numeric part.

Read the entry target 1 MT 5'PFS UGC 3'PFS UCG (mixed) RNA 1: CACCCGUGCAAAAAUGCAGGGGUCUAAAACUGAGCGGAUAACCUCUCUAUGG RNA 2: GGGAAUGGAUCCACAUCUACGAAUUCUGCCCAUAGAGAGGUUAUCCGCUCAUCGAGAUCGGAAGAGCACACGU and write its reported Kd. 12.1

Read the entry target 1 insA 3' of 13,insU 3' of 12 (mixed) RNA 1: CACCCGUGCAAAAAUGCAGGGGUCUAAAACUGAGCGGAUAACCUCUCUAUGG RNA 2: GGGAAUGGAUCCACAUCUACGAAUUCGUACCAUAGAGAGAGUUUAUCCGCUCACCGAGAUCGGAAGAGCACACGU and write its reported Kd. 4.2

Read the entry target 1 U11G,A20U (mixed) RNA 1: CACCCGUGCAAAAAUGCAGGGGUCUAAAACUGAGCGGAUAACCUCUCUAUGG RNA 2: GGGAAUGGAUCCACAUCUACGAAUUCGUACCUUAGAGAGGGUAUCCGCUCACCGAGAUCGGAAGAGCACACGU and write its reported Kd. 77

Read the entry target 2 MT 5'PFS CGA 3'PFS CGC (mixed) RNA 1: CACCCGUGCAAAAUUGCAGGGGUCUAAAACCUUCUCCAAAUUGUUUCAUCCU RNA 2: GGGAAUGGAUCCACAUCUACGAAUUCCGAAGGAUGAAACAAUUUGGAGAAGCGCAGAUCGGAAGAGCACACGU and write its reported Kd. 5.6

All values here come from paper PMC10786891.
